Values from PubChem BioAssay

Experiment Summary: probe aInhba binding on compound microarray – biochemical, small-molecule microarray, 635/667 nm fluorescence, primary screen (AID 1148);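 further: score merges 667nm spot fluorescence with signal-to-noise for antibody binding to printed compounds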
Measurement Context: higher = more signal

[
  {
    "Molecule": "Cc1ccc(S[C@]2(C(=O)O)CC(=O)N(C3CCCCC3)[C@@H]2c2ccc(CO)cc2)cc1",
    "composite z-score": 0.112
  },
  {
    "Molecule": "O=C1C2C=CC(C(O)c3ccc(Br)cc3)N(Nc3ccccc3)C2C(=O)N1c1ccccc1 (configuration not stated)",
    "composite z-score": 0.147
  },
  {
    "Molecule": "C=CCC(OC(C)=O)[C@@H]1[C@@H](N(Cc2ccc(-c3ccccc3)cc2)C(=O)Cc2ccc(OC)cc2)c2cc(OCCCO)ccc2N1C(=O)c1ccc(-c2ccccc2)cc1 (some centres not stated)",
    "composite z-score": -0.0018
  },
  {
    "Molecule": "CCC[C@@H]1C[C@@]1(CCC)[C@@H](NC(=O)c1cccs1)c1ccc(Cl)cc1",
    "composite z-score": -0.211
  },
  {
    "Molecule": "O=C1O[C@@H](c2ccccc2)[C@@H](c2ccccc2)N2[C@@H](c3ccc(O)cc3)[C@]3(C(=O)Nc4ccc(C#CC5=CCCCC5)cc43)[C@@H](C(=O)Nc3nc4ccccc4s3)[C@H]12",
    "composite z-score": 1.37
  },
  {
    "Molecule": "CCCN1C(=O)[C@@H]2Cc3c([nH]c4ccccc34)[C@@H](c3cccc(O)c3)N2C1=O",
    "composite z-score": -0.024
  },
  {
    "Molecule": "COCCOC(=O)N1C(=O)[C@@]2(c3ccccc31)[C@H](c1ccc(OCCO)cc1)N1[C@H](c3ccccc3)[C@H](c3ccccc3)OC(=O)[C@H]1[C@@H]2C(=O)NC[C@H](O)c1ccccc1",
    "composite z-score": 0.268
  }
]
